- Test system: MDA-MB-435
- testName: NCI tumour cell line growth inhibition, 48 h
quantity: TGI

Cn1c(-c2cccs2)cc(-c2ccccc2)c1-c1cccs1	> 100 µM
Nc1ncnc2c1ncn2Cc1ccc(C23CC4CC(CC(C4)C2)C3)c(OCc2cc(F)c(F)cc2F)c1	> 100 µM

Challenge: Identify TGI associated with the compound "O=[N+]([O-])c1ccc2[nH]nc(OCc3ccccn3)c2c1"
Response given: > 100 µM

Challenge: Please give measured TGI of the following entry: COC(=O)c1cc2c3c(cc(N(C)C)c2[nH]1)N(C(=O)c1cc2cc(OC)c(OC)c(OC)c2[nH]1)CC3CCl (centres undefined)
Response given: < 0.0025 µM
